Taken from PubChem BioAssay.

- assayDetails: budding yeast growth modifiers under rapamycin – strain BY4716, OD600, 96 h, primary screen (AID 1091); further: test concentration not given here
- assaySetup: S. cerevisiae BY4716 + rapamycin, called active from +8 up or from −8 down
Activity calls are given as the source filed them.
Classes used: active, inactive

compound	qualitativeLabel
CCCCN1CC=CC23O[C@@H]4/C=C\CCCOC(=O)C4[C@H]2C(=O)N(C(CO)C(C)C)[C@@H]3C1=O (some centres undefined)	inactive
NCCCCCCNC(=O)[C@@H]1C[C@@H]2C(=O)N3CCC[C@H]3C(=O)N2[C@@H]1c1cccc(OCCO)c1	inactive
C=C(COC)/C(=C/C[C@H](OC(C)=O)c1ccccc1OCCO)c1cc(C(=O)OC)ccc1OC	inactive
C=C(/C(=C/C[C@@H](OC(C)=O)c1cccc(OCCO)c1)c1cnc2ccccc2c1)C(C)C	inactive
C=C(CCCC)/C(=C/C[C@H](OC(=O)c1ccncc1)c1cccc(OCCO)c1)c1cnc2ccccc2c1	active
CCOC(=O)C[C@H]1[C@H](OC(=O)Cc2ccc3c(c2)OCO3)[C@@H](NC(=O)c2ccc3ccccc3n2)c2cc(OCCCO)ccc2N1C(=O)Cc1ccc(OC)cc1	inactive
C=CC[C@@]12N=C(c3ccc(OCCCO)cc3)O[C@@H]1c1ccccc1N(CCC)C2=O	inactive
CN(C)c1ccc(C(O)C2C=CC3C(=O)N(Cc4ccccc4)C(=O)C3N2n2cnnc2)cc1 (centres undefined)	inactive
CN(C)CCCC[C@@H]1NC(=O)[C@H]2C[C@@H](C(=O)O)[C@@H](c3ccc(O)cc3)N2C1=O	inactive
COCCCNC(=O)[C@@]1(Sc2ccc(C)cc2)CC(=O)N(Cc2ccccc2C(F)(F)F)[C@@H]1c1ccc(CO)cc1I	inactive
COC(=O)[C@]1(Cc2ccccc2)N=C(c2ccc(OCCCO)cc2)O[C@@H]1c1ccccc1CN=[N+]=[N-]	active
CC1CC/C=C\[C@H]2OC34C=CCN(Cc5ccccc5)C(=O)[C@H]3N(CCCCCCO)C(=O)[C@@H]4C2C(=O)O1 (some centres undefined)	inactive
COCCOC(=O)N1C(=O)[C@@]2(c3cc(C#CCCO)ccc31)[C@H](c1ccccc1OCCO)N1[C@H](c3ccccc3)[C@H](c3ccccc3)OC(=O)[C@H]1[C@@H]2C(N)=O	inactive
C=C(COC)C(=O)CC[C@H](OC(=O)c1cccnc1)c1ccc(OCCO)cc1	inactive
COc1ccc([Si](C)(C)[C@H]2[C@H](CC(=O)N3Cc4ccccc4C[C@H]3CO)O[C@@]3(C(=O)N(C)c4c(Br)cc(C)cc43)[C@@H]2C)cc1	inactive
O=C1C2C=CC(C(O)c3cccs3)N(Nc3ccc([N+](=O)[O-])cc3)C2C(=O)N1c1ccccc1 (centres undefined)	inactive
C=C(COC)C(=O)CC[C@@H](OC(=O)c1ccccc1-c1ccccc1C(=O)O)c1ccc(OCCO)cc1	inactive
COCCCNC(=O)[C@@H]1c2ccccc2C(=O)N(Cc2ccc(OC(F)(F)F)cc2)[C@H]1c1ccc(CO)cc1	inactive
COC(=O)C(CC#Cc1ccc2c(c1)[C@]1(C(=O)N2)[C@H](c2ccc(OCCO)cc2)N2[C@H](c3ccccc3)[C@H](c3ccccc3)OC(=O)[C@H]2[C@@H]1C(=O)N1CCCCCCC1)C(=O)OC	inactive
COc1cc(OC)c(C(O)C2C=CC3C(=O)N(c4ccccc4)C(=O)C3N2Nc2ccc(C(C)C)cc2)cc1Br (centres undefined)	inactive
CCCC[C@H]1C[C@@H]1[C@@H]1N(C(C)=O)[C@H](c2cccc(OC)c2)CC12CC2	inactive
C=C(C)[C@@H]1CC=C(C(O)C2C=CC3C(=O)N(C)C(=O)C3N2Nc2ccc([N+](=O)[O-])cc2[N+](=O)[O-])CC1 (some centres undefined)	inactive
O=C(NCCN1CCOCC1)[C@@H]1c2ccccc2C(=O)N(Cc2ccc(OC(F)(F)F)cc2)[C@H]1c1ccc(CO)cc1	inactive
C=CCC(OC(C)=O)[C@@H]1[C@@H](N(Cc2ccc(-c3ccccc3)cc2)C(=O)c2cccc3ccccc23)c2cc(OCCCO)ccc2N1C(=O)Cc1ccc(OC)cc1 (some centres undefined)	inactive
CN(C)CCCNC(=O)[C@@]1(Cc2ccccc2I)c2ccccc2C(=O)N(C2CCCCC2)[C@H]1c1ccc(CO)cc1	inactive
Cc1ccc(C(C)CC(O)C2C=CC3C(=O)N(C)C(=O)C3N2Nc2ccccc2)o1 (centres undefined)	inactive
CCCC#C[Si](O[C@H](CC)c1cn(Cc2ccccc2)nn1)(C(C)C)C(C)C	inactive
COCCCN1C(=O)[C@@]2(c3ccc([N+](=O)[O-])cc3)CC(=O)N(CC34CC5CC(CC(C5)C3)C4)[C@@H]2c2ccc(CO)cc21	inactive
C=CCOC(=O)[C@@H]1[C@H]2C(=O)O[C@H](c3ccccc3)[C@H](c3ccccc3)N2[C@H](c2ccc(OCCOC(=O)[C@H]3C[C@H]4C(=O)N[C@@H](CCCCN(C)C)C(=O)N4[C@H]3c3ccc(O)cc3)cc2)[C@@]12C(=O)Nc1ccc(I)cc12	inactive
